System: HL-60
Test: Cytotoxicity against human HL60
Format: functional, cell-based
Test readout: IC50 (µM)
Just the number please, in µM, no unit attached.

Solved cases below.
Input line: Param item = O=C(/C=C/c1ccc(O)cc1)CC(=O)/C=C/c1ccc(O)cc1 ; retrieve measured IC50.
Output line: 25.1

Input line: Given COc1cc(/C=C/C(O)=C/C(=O)/C=C/c2ccc(O)cc2)ccc1O , state its recorded IC50.
Output line: 24.2

Input line: Need IC50, item COc1cc(/C=C/C(=O)CC(=O)/C=C/c2ccc(O)c(OC)c2)ccc1O
Output line: 34.2

Continuing:
Input line: Given C=C1CC[C@H]2C(C)(C)CCC[C@]2(C)[C@H]1C[C@@H](O)C1=CC(O)OC1=O (stereo not given in full) , state its recorded IC50.
Output line: 7.21
